This listing pairs binders with measured log10(kon).
Biological target: T1, c-Met-Fc chimera protein (UniProt P08581 25-932, limits assumed)
T1 construct: Captured on the SPR chip by an anti-IgG antibody; not shown: Fc part
T1 sequence (P08581 25-932 limits assumed, change not shown): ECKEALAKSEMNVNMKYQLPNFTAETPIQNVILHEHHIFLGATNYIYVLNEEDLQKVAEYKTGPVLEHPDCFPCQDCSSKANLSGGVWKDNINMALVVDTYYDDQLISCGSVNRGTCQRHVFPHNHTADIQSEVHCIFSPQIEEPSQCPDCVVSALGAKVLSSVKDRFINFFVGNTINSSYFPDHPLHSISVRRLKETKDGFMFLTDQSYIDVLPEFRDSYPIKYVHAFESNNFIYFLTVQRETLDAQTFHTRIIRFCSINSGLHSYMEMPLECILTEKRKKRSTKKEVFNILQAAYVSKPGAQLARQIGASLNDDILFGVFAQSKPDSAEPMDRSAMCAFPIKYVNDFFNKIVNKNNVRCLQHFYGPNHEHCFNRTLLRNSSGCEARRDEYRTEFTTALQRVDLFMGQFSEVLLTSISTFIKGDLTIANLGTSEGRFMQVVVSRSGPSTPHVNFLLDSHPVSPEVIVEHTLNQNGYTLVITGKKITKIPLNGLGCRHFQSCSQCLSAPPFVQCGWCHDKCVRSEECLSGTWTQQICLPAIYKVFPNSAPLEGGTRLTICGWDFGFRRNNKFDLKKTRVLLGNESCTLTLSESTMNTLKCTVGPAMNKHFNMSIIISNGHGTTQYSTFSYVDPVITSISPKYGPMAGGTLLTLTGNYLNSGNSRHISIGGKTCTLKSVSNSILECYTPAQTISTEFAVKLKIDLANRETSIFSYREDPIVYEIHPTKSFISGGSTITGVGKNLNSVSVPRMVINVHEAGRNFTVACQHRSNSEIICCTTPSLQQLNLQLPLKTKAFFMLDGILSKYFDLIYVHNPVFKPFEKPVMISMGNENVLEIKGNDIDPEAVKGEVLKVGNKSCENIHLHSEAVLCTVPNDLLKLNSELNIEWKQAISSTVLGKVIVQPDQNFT
Assay: SPR presumed (Biacore as in 9-1; method not given), c-Met-Fc on chip
Bridges are numbered along the chain shown (N, C = ends). Where no end group is shown, it is not given here. [ ]: non-standard residue; d: D form. NMeW = CN[C@@H](Cc1c[nH]c2ccccc12)C(=O)O; NMeE = CN[C@@H](CCC(=O)O)C(=O)O; NMeN = CN[C@@H](CC(N)=O)C(=O)O; NMeC = CN[C@@H](CS)C(=O)O
Base-10 log of kon, unit M⁻¹ s⁻¹.

Before answering, review these 4 worked examples.
[[record]]
binder = "{CH2CO}-YRQFNRRTHEVWNLD[NMeC]G (thioether N-16 (inferred)) [N16, N-methylated D4-3 peptide]"
measured_property = "log10(kon)"
measured_value = 5.99

[[record]]
binder = "{CH2CO}-YRQFNRRTHEV[NMeW]NLDCG (thioether N-16) [N12, N-methylated D4-3 peptide]"
measured_property = "log10(kon)"
measured_value = 4.74

[[record]]
binder = "{CH2CO}-YRQFNRRTHEVWNLDCG (thioether N-16; not fully specified (residues 1, 14); also: one N-methylated residue, position given only by label N14) [N14, N-methylated D4-3 peptide]"
measured_property = "log10(kon)"
measured_value = 4.32

[[record]]
binder = "{CH2CO}-YRQF[NMeN]RRTHEVWNLDCG (thioether N-16 (inferred)) [N5, N-methylated D4-3 peptide]"
measured_property = "log10(kon)"
measured_value = 4.28


Lab note: next binder to report on.
# get_value(readout='log10(kon)', item= {CH2CO}-YRQFNRRTH[NMeE]VWNLDCG (thioether N-16) [N10, N-methylated D4-3 peptide] )
4.40
